- System under test: Kallikrein-7 (Homo sapiens, UniProt P49862)
- Sequence (P49862 whole entry): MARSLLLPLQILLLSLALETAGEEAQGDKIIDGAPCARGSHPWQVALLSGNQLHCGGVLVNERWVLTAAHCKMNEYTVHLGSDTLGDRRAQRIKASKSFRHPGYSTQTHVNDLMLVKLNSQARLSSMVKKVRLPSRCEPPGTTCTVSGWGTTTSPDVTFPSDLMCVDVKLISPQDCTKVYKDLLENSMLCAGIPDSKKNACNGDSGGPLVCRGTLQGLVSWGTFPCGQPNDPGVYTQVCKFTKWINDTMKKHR
- Protocol: Mixed-type inhibition of human kallikrein7 using Suc-Leu-Leu-Val-Tyr-AMC as substrate assessed as enzyme-substrate-inhibitor complex after 15 to 60 mins by Lineweaver-Burk/Eadie-Hofstee plot analysis
Listing of entries alongside the reported pKi.
// scale note: pKi = -log10(conc_M); give the bare number

Solved entries (count: 3):
COc1cc(/C=C(/C#N)C(=O)Nc2ccc(O)cc2)ccc1O ... 3.89
COc1ccc(/C=C2/SC(=O)N(CNc3cc(F)ccc3C)C2=O)cc1OC ... 3.78
CCOc1cccc(NC(=O)/C(C#N)=C\c2ccc(OCC(=O)O)c(OC)c2)c1 ... 3.85

q: Let me know recorded pKi for Nc1ccc2[nH]c(SCc3nc4ccccc4c(=O)n3-c3cccc(C(F)(F)F)c3)nc2c1 , thanks.
a: 4.36

q: Determine its reported pKi: COc1ccc(NC(=O)/C(C#N)=C\c2ccc(O)c(OC)c2)cc1
a: 3.79

q: State, in one line, measured pKi of CCOc1cc(/C=C(/C#N)C(=O)Nc2ccc(O)cc2)ccc1O
a: 3.82

q: Answer with the recorded pKi for the compound listed here: CNC(=O)c1ccc(Nc2nnc(-c3ccc(O)cc3)c3ccccc23)cc1
a: 3.78

q: Specify pKi for COc1cc(/C=C(/C#N)c2nc3ccccc3[nH]2)ccc1OCC(=O)N1CCOCC1 and stop.
a: 3.88

---

compounds and their reported inhibition
- System under test: Suppressor of tumorigenicity 14 protein (Homo sapiens) (UniProt Q9Y5Y6)
- Protocol: Inhibition of matriptase (unknown origin) using Boc-Gln-Ala-Arg-AMC as substrate at 50 uM after 15 mins by fluorescence assay

CNC(=O)c1ccc(Nc2nnc(-c3ccc(O)cc3)c3ccccc23)cc1 ... < 30%
CCOc1cccc(NC(=O)/C(C#N)=C\c2ccc(O)c(OC)c2)c1 ... < 30%
O=c1c2ccccc2nc(CSc2ccccn2)n1-c1cccc(C(F)(F)F)c1 ... < 30%

q: Output measured inhibition for this item: COc1cc(/C=C(/C#N)c2nc3ccccc3[nH]2)ccc1OCc1ccccc1
a: < 30%

q: State its inhibition: CCOc1cccc(NC(=O)/C(C#N)=C\c2ccc(O)cc2)c1
a: < 30%

q: Return inhibition (reported value) for this compound: CCOc1cc(/C=C(/C#N)C(=O)Nc2ccc(O)cc2)ccc1OC
a: < 30%

q: Dear colleague, please send me the reported inhibition for Nc1ccc2[nH]c(SCc3nc4ccccc4c(=O)n3-c3cccc(C(F)(F)F)c3)nc2c1 when you can.
a: < 30%

q: Specify reported inhibition for the compound shown: CCOc1ccc(/C=C(/C#N)C(=O)Nc2ccc(O)cc2)cc1OC
a: < 30%

q: Hello, please tell me recorded inhibition for this one: O=c1c2ccccc2nc(CSc2[nH]cnc3ncnc2-3)n1-c1cccc(C(F)(F)F)c1
a: < 30%

---

- System under test: Kallikrein-14 (Homo sapiens, UniProt Q9P0G3)
Property name: IC50 (µM)
Report the value in µM with no unit label.

Below: 4 molecules and their reported IC50.
COc1ccc(/C=C2/SC(=O)N(CNc3cc(F)ccc3C)C2=O)cc1OC ... 112
CCOc1cccc(NC(=O)/C(C#N)=C\c2ccc(OCC(=O)O)c(OC)c2)c1 ... 87
CCOc1cc(/C=C(/C#N)C(=O)Nc2ccc(O)cc2)ccc1O ... 101
COc1cc(/C=C(/C#N)C(=O)Nc2ccc(O)cc2)ccc1O ... 106

q: Consider the molecule CNC(=O)c1ccc(Nc2nnc(-c3ccc(O)cc3)c3ccccc23)cc1 tested on Kallikrein-14 (Homo sapiens, UniProt Q9P0G3); state its IC50.
a: 96

---

- System under test: Kallikrein-7 (Homo sapiens)
- Protocol: Mixed-type inhibition of human kallikrein7 using Suc-Leu-Leu-Val-Tyr-AMC as substrate assessed as enzyme-inhibitor complex after 15 to 60 mins by Lineweaver-Burk/Eadie-Hofstee plot analysis
Property name: pKi
When answering, recall that pKi equals minus log10 of the concentration in mol/L, and write that number alone.

CCOc1cccc(NC(=O)/C(C#N)=C\c2ccc(OCC(=O)O)c(OC)c2)c1 ... 4.02
Nc1ccc2[nH]c(SCc3nc4ccccc4c(=O)n3-c3cccc(C(F)(F)F)c3)nc2c1 ... 4.82
COc1cc(/C=C(/C#N)C(=O)Nc2ccc(O)cc2)ccc1O ... 4.15
CNC(=O)c1ccc(Nc2nnc(-c3ccc(O)cc3)c3ccccc23)cc1 ... 4.30
COc1ccc(NC(=O)/C(C#N)=C\c2ccc(O)c(OC)c2)cc1 ... 4.14
CCOc1cc(/C=C(/C#N)C(=O)Nc2ccc(O)cc2)ccc1O ... 4.12

q: Provide one value: measured pKi of COc1ccc(/C=C2/SC(=O)N(CNc3cc(F)ccc3C)C2=O)cc1OC
a: 4.08

q: # return recorded pKi for entry COc1cc(/C=C(/C#N)c2nc3ccccc3[nH]2)ccc1OCC(=O)N1CCOCC1
a: 4.26

---

- System under test: Kallikrein-5 (Homo sapiens, UniProt Q9Y337)
- Sequence (Q9Y337 whole entry): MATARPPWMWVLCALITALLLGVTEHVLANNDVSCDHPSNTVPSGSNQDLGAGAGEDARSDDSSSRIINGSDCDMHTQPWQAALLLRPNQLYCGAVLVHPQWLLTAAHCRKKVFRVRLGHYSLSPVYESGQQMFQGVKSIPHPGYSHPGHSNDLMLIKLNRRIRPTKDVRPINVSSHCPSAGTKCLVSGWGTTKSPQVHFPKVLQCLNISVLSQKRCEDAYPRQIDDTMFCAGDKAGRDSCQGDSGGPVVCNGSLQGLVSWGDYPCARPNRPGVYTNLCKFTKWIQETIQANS
Property name: pIC50
pIC50 field: float, defined as -log10 of concentration (mol/L).

q: Determine reported pIC50 for CCOc1cc(/C=C(/C#N)C(=O)Nc2ccc(O)cc2)ccc1O ; test system: Kallikrein-5 (Homo sapiens, UniProt Q9Y337).
a: 3.93

---

- System under test: UniProt Q9Y5Y6
- Sequence (Q9Y5Y6 whole entry): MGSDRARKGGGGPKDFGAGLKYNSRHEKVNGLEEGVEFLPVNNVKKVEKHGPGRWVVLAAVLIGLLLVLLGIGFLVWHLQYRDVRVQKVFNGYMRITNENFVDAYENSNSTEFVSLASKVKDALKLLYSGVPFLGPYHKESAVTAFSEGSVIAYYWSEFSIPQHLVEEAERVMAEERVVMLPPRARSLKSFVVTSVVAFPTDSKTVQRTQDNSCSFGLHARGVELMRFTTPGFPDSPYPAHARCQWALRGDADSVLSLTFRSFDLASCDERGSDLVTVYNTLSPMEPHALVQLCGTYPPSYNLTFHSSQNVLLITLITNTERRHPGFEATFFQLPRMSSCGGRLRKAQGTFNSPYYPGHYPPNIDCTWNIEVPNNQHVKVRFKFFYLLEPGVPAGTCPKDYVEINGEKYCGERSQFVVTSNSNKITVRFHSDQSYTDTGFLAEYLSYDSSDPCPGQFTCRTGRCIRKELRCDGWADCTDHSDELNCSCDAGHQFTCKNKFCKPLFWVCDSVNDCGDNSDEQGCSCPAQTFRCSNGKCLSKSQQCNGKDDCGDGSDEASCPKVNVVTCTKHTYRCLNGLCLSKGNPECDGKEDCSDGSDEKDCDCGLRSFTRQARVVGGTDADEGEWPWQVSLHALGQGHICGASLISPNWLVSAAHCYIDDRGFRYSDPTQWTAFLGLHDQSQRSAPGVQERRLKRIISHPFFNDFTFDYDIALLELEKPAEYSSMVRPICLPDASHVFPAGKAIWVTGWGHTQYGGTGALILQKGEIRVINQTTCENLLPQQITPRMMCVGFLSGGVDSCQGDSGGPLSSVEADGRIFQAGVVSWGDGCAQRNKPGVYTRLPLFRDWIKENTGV
Property name: IC50 (µM)
Enter your answer as a number in µM; do not include the unit.

Worked cases, IC50 given:
COc1ccc(/C=C/C(=O)c2ccc(O)cc2)cc1COc1ccc(Cl)cc1 ... 138
COc1cc(/C=C(/C#N)c2nc3ccccc3[nH]2)ccc1OCC(=O)N1CCOCC1 ... 128
COc1ccc(NC(=O)/C(C#N)=C\c2ccc(O)c(OC)c2)cc1 ... 120

As a next step, examine the compound that follows.
q: Please indicate recorded IC50 of COc1cc(/C=C(/C#N)C(=O)Nc2ccc(O)cc2)ccc1O measured with UniProt Q9Y5Y6.
a: 111

---

- System under test: UniProt:Q9Y337
- Protocol: Reversible inhibition of human kallikrein5 using Boc-Val-Pro-Arg-AMC as substrate after 15 to 60 mins by fluorescence assay
Calls of active or inactive are those of the source. No cut-off for these calls is given here.
Property name: inhibition

Nc1ccc2[nH]c(SCc3nc4ccccc4c(=O)n3-c3cccc(C(F)(F)F)c3)nc2c1 ... Active
CCOc1cccc(NC(=O)/C(C#N)=C\c2ccc(OCC(=O)O)c(OC)c2)c1 ... Active
COc1ccc(/C=C2/SC(=O)N(CNc3cc(F)ccc3C)C2=O)cc1OC ... Active
CCOc1ccc(/C=C(/C#N)C(=O)Nc2ccc(O)cc2)cc1OC ... Active
O=c1c2ccccc2nc(CSc2[nH]cnc3ncnc2-3)n1-c1cccc(C(F)(F)F)c1 ... Active

Let us examine a further case.
q: Please respond with reported inhibition (system UniProt:Q9Y337) for CCOc1cc(/C=C(/C#N)C(=O)Nc2ccc(O)cc2)ccc1O .
a: Active

---

- System under test: Kallikrein-14 (Homo sapiens) (UniProt Q9P0G3)
- Sequence (Q9P0G3 17-267): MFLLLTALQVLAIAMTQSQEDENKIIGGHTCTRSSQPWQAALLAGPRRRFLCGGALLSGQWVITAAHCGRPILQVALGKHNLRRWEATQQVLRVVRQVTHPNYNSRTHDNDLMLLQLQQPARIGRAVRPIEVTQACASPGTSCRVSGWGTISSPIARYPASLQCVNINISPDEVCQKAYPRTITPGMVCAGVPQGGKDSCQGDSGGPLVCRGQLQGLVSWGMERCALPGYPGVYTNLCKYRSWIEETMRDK
- Protocol: Inhibition of human kallikrein14 using Boc-Val-Pro-Arg-AMC as substrate at 50 uM after 15 mins by fluorescence assay
Measured inhibition accompanies every entry in the list below.

Solved entries (count: 3):
CCOc1ccc(/C=C(/C#N)C(=O)Nc2ccc(O)cc2)cc1OC ... < 30%
CCOc1cccc(NC(=O)/C(C#N)=C\c2ccc(O)cc2)c1 ... < 30%
COc1cc(/C=C(/C#N)c2nc3ccccc3[nH]2)ccc1OCc1ccccc1 ... < 30%

q: Quick one: give measured inhibition for CCOc1cc(/C=C(/C#N)C(=O)Nc2ccc(O)cc2)ccc1OC
a: < 30%
